meta.source: the RNAGym collection of RNA variant scans (doi:10.7554/elife.80360)

B1: Hairpin Ribozyme (parent)
chain: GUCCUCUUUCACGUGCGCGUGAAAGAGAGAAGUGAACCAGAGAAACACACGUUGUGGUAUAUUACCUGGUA

Variants of: B1
Test description: self-cleavage, relative activity (ratio to wild type); higher = more cleavage; co-transcriptional
Metric name: self-cleavage
# output: bare number, no unit

- G34U A47U: 0.876
- A45G U62A: 0.0572
- A11U A41G: 0.495
- U5G A59G: 0.0492
- U20A A26C: 0.394

Prompt: Which self-cleavage is reported for this variant? A47C U58G
Completion: 0.172

Prompt: Another variant to look at: G32U A49G
Completion: 0.128

Prompt: Another variant to look at: C18U G57A
Completion: 0.188

Prompt: Another variant to look at: U8A G51C
Completion: 0.602

Prompt: Another variant to look at: C4U A26U
Completion: 0.156

Prompt: Another variant to look at: G32A A45U
Completion: 0.143
